# Read-out: Intercellular Adhesion Molecule 1 (ICAM1), ICAM1 (gene 3383)
# protocolDetails: BSK_3C_ICAM1: BioMAP Diversity Plus: 3C Assay for Intercellular Adhesion Molecule 1 (ICAM1) Biomarker Activity (AID 2283003)
# measurementParameters: primary human endothelial cells (HUVEC); actives raise or lower the signal
Calls of active or inactive are those of the source. The calls were made as follows: active = hit-call score of the fitted dose curve at least 0.9, where 1 is the maximum; inactive = score below 0.9.
Select the matching outcome among 1.0 for active, 0.0 for inactive

Here are 3 compounds together with their reported answers.
1) ClC1=C(Cl)[C@]2(Cl)[C@H]3[C@H]([C@H]4C=C[C@H]3C4)[C@@]1(Cl)C2(Cl)Cl: 0.0
2) CCCCCCCCC(=O)NCc1ccc(O)c(OC)c1: 0.0
3) COC(=O)Cc1ccccc1: 0.0

Continue with the next compound.
What did this assay record as the result for COP(=S)(OC)Oc1ccc(Sc2ccc(OP(=S)(OC)OC)cc2)cc1 ?
0.0

----------
# testedSystem: human Beta-secretase (BACE), BACE1 (gene 23621) (UniProt P56817)
# Sequence (P56817 whole entry, looked up): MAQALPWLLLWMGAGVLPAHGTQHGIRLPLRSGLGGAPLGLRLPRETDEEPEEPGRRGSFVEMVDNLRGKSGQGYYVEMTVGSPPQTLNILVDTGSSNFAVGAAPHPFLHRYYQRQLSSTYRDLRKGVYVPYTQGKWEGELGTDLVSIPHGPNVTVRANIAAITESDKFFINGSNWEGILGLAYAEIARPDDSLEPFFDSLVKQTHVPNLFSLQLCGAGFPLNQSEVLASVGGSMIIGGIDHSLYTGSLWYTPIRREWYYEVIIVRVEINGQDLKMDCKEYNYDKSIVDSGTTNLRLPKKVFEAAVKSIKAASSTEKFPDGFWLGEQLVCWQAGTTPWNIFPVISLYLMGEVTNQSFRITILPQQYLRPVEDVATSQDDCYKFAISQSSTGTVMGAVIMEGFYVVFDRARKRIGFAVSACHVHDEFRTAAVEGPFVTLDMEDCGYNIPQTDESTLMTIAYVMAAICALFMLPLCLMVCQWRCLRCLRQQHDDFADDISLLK
# protocolDetails: NVS_ENZ_hBACE: NovaScreen (NVS) Enzymatic Assay for human Beta-secretase (BACE) (AID 2283140);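 also: hits are inhibitors that reduce fluorescent substrate signal versus DMSO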
Records with an inconclusive call do not appear. The source made the active and inactive calls. Rule for the calls: active = hit-call score of the fitted dose curve at least 0.9, where 1 is the maximum; inconclusive = response in the unintended direction; inactive = score below 0.9.
reportedMetric: AC50

Some solved entries appear below for comparison.
1) O=C(Nc1ccc2[nH]ccc2c1)c1cc2cc(F)ccc2n1Cc1cccc(F)c1: inactive
2) O=C(O)C(F)(F)C(F)(F)C(F)(F)C(F)(F)C(F)(F)C(F)(F)C(F)(F)C(F)(F)C(F)(F)C(F)(F)F: 1.51 µM (active)
3) CC(C)CCCCCCOC(=O)c1ccccc1C(=O)OCCCCCCC(C)C: 8.09 µM (active)
4) Cn1sc(Cl)cc1=O: inactive
5) COc1cc(-c2ccc(N)c(OC)c2)ccc1N: 16.4 µM (active)
6) COP(=S)(OC)Oc1ccc(Sc2ccc(OP(=S)(OC)OC)cc2)cc1: 2.51 µM (active)

Query for human Beta-secretase (BACE), BACE1 (gene 23621) (UniProt P56817): what AC50 does the record show for C=C(C)C(=O)[O][Sn]([CH2]CCC)([CH2]CCC)[CH2]CCC ?
8.77 µM (active)

----------
# protocolDetails: APR_HepG2_MitoMembPot_24hr: Apredica 24-hour HepG2 Assay for Mitochondrial Membrane Potential (AID 2282911)
# measurementParameters: imaging, actives raise or lower the signal
Calls of active or inactive are those of the source. How the source made its calls: active means hit-call score of the fitted dose curve at least 0.9, where 1 is the maximum; inactive means score below 0.9.
Response enum: yes (1) (active), no (0) (inactive)

# count of solved cases: 4
1. C=CC(=O)OCCCCCC(C)C: no (0)
2. CCC(=O)C(CC(C)N(C)C)(c1ccccc1)c1ccccc1 (stereo unspecified): no (0)
3. CC(C)(OO)c1ccccc1: yes (1)
4. NC(=O)O: yes (1)

Please let me know the test result on file for O=C1C2(Cl)C3(Cl)C4(Cl)C(Cl)(Cl)C5(Cl)C3(Cl)C1(Cl)C5(Cl)C24Cl (stereo unspecified) .
no (0)

# outcome recorded in this test, key = CCN1CCC2(CC1)COc1cc3c(cc12)N(C(=O)c1ccc(-c2ccc(-c4nnc(C)o4)cc2C)cc1)CC3
no (0)

----------
# testedSystem: Sodium channel protein type 1 subunit alpha (Rattus norvegicus)
# protocolDetails: NVS_IC_rNaCh_site2: NovaScreen (NVS) Ion Channel Assay for rat Sodium Channel, Site 2 (NaCh) (AID 2283322);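 also: hit means loss of radioligand binding signal relative to DMSO so AC50 marks displacement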
# Method: NVS_IC_rNaCh_site2 is a biochemical, single-readout assay that uses extracted gene-proteins from Rat forebrain membranes in a tissue-based cell-free assay. Measurements were taken 1 hour after chemical dosing in a 48-well plate.NVS_IC_rNaCh_site2 is one of one assay component(s) measured or calculated from the NVS_IC_rNaCh_site2 assay. […] This assay endpoint, NVS_IC_rNaCh_site2, was analyzed in the positive analysis fitting direction relative to DMSO as the negative control and baseline of activity. […]
Results filed as inconclusive are left out. Activity calls are given as the source filed them. How the source made its calls: active means hit-call score of the fitted dose curve at least 0.9, where 1 is the maximum; inconclusive means response in the unintended direction; inactive means score below 0.9.
In this exercise, the only acceptable responses are 1 for active, -1 for inactive

Reference set, count: 3
1. CCCCCCCCC(=O)NCc1ccc(O)c(OC)c1: 1
2. CC(C)(C)CC(C)(C)c1ccc(O)cc1: -1
3. N#CCc1ccc(Cl)cc1: -1

How did this test come out for O=C(Cl)c1ccc(Cl)cc1 ?
-1

Which outcome was entered for the compound CCSC(C)CC1CC(=O)C(C(CC)=NOC/C=C/Cl)=C(O)C1 (configuration not stated) in this test?
-1

Called result for CCC(=O)C(CC(C)N(C)C)(c1ccccc1)c1ccccc1 (configuration not stated)
1

Which outcome was assigned to CCN1CCC2(CC1)COc1cc3c(cc12)N(C(=O)c1ccc(-c2ccc(-c4nnc(C)o4)cc2C)cc1)CC3 in this test?
1

----------
# Read-out: serum amyloid A (SAA), SAA1 (gene 6288)
# protocolDetails: BSK_CASM3C_SAA: BioMAP Diversity Plus: CASM3C Assay for serum amyloid A (SAA) Biomarker Activity (AID 2283049);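 also: SAA protein level quantified by ELISA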
# measurementParameters: primary human coronary artery smooth muscle cells; actives raise or lower the signal
The source made the active and inactive calls. The calls were made as follows: active = hit-call score of the fitted dose curve at least 0.9, where 1 is the maximum; inactive = score below 0.9.
Would you mind answering with one of these outcomes? true (1) = active, false (0) = inactive

# example entries with known answers
1) ClC1(Cl)C2(Cl)C3(Cl)C4(Cl)C(Cl)(Cl)C5(Cl)C3(Cl)C1(Cl)C5(Cl)C24Cl (stereo unspecified): false (0)
2) CCCCCCCCC(=O)NCc1ccc(O)c(OC)c1: false (0)
3) CC(C)(OO)c1ccccc1: false (0)
4) ClC1=C(Cl)[C@]2(Cl)[C@H]3[C@H]([C@H]4C=C[C@H]3C4)[C@@]1(Cl)C2(Cl)Cl: false (0)
5) C=C(C)C(=O)[O][Sn]([CH2]CCC)([CH2]CCC)[CH2]CCC: true (1)

As a next step, examine the molecule that follows.
Answer briefly: the call reported for C(=NC1CCCCC1)=NC1CCCCC1 in this assay.
true (1)

----------
# Read-out: Vascular cell adhesion molecule 1 (VCAM1), VCAM1 (gene 7412)
# protocolDetails: BSK_MyoF_VCAM1: BioMAP Diversity Plus: MyoF Assay for Vascular cell adhesion molecule 1 (VCAM1) Biomarker Activity (AID 2284231)
# measurementParameters: primary human lung fibroblasts
Activity calls are given as the source filed them. The calls were made as follows: active = hit-call score of the fitted dose curve at least 0.9, where 1 is the maximum; inactive = score below 0.9.
reportedMetric: AC50

1. ClC(Cl)=C(Cl)C(Cl)=C(Cl)Cl: inactive
2. CC(C)CCCCCCOC(=O)c1ccccc1C(=O)OCCCCCCC(C)C: inactive
3. CCOC(=O)/C=C(C)/C=C/C[C@@H](C)CCCC(C)C: 29.2 µM (active)
4. CCCCCCCCC(=O)NCc1ccc(O)c(OC)c1: inactive
5. Nc1ncc([N+](=O)[O-])s1: inactive

Reported AC50, compound COC(=O)c1sccc1S(=O)(=O)NC(=O)Nc1nc(C)nc(OC)n1 : ____
inactive

What AC50 value was documented for this compound, BrCCBr ?
inactive

Reported AC50, compound COC[C@H](C)N(C(=O)CCl)c1c(C)csc1C : ____
inactive

Query (compound): Nc1ccc(-c2ccc(N)c(Cl)c2)cc1Cl ; field requested: AC50
20 µM (active)

----------
# protocolDetails: BSK_3C_Proliferation: Cell Proliferation Assessment in the BioMAP Diversity Plus: 3C Assay (AID 2283006)
# measurementParameters: primary human endothelial cells (HUVEC)
The source made the active and inactive calls. The calls were made as follows: active = hit-call score of the fitted dose curve at least 0.9, where 1 is the maximum; inactive = score below 0.9.
Would you mind answering with one of these outcomes? active, inactive

1. C[C@@H]1C[C@@H]([C@H](O)CC2CC(=O)NC(=O)C2)C(=O)[C@@H](C)C1: active

Please state the recorded outcome for this compound: C=CC(=O)OCCCCCC(C)C
inactive

Which outcome did this test record for the compound O=C(O)CCC(F)(C(F)(F)F)C(F)(F)F ?
inactive

Recorded test outcome, item CC(C)CCCCCCOC(=O)c1ccccc1C(=O)OCCCCCCC(C)C
inactive

----------
# testedSystem: human CYP2B6, CYP2B6 (gene 1555)
# protocolDetails: NVS_ADME_hCYP2B6: NovaScreen (NVS) CYP450-related Enzyme Activity (ADME) Assay for human CYP2B6 (AID 2283101)
Inconclusive results are not listed. The source made the active and inactive calls. Rule for the calls: active = hit-call score of the fitted dose curve at least 0.9, where 1 is the maximum; inconclusive = response in the unintended direction; inactive = score below 0.9.
Your response should consist of one outcome taken from T for active, F for inactive

1) Clc1ccc(C2(Cn3cncn3)CC(Br)CO2)c(Cl)c1 (centres undefined): T
2) O=S(=O)(c1ccc(Cl)cc1)c1ccc(Cl)cc1: T
3) CC(C)(C)CC(C)(C)c1ccc(O)cc1: T

Next item in the queue.
Per the assay record, what outcome was assigned to CCOP(=S)(OCC)SCSP(=S)(OCC)OCC ?
F

----------
# Read-out: Monokine induced gamma interferon (MIG), CXCL9 (gene 4283)
# protocolDetails: BSK_BE3C_MIG: BioMAP Diversity Plus: BE3C Assay for Monokine induced gamma interferon (MIG) Biomarker Activity (AID 2283035)
# measurementParameters: primary human bronchial epithelial cells; actives raise or lower the signal
Active and inactive are the calls of the source. How the source made its calls: active means hit-call score of the fitted dose curve at least 0.9, where 1 is the maximum; inactive means score below 0.9.
Select the correct class. Options are TRUE for active, FALSE for inactive and nothing else.

1. C=CC(=O)OCCCCCC(C)C: FALSE
2. Nc1ncc([N+](=O)[O-])s1: FALSE
3. O=[N+]([O-])c1ccc(O)c([N+](=O)[O-])c1: FALSE
4. O=S(=O)(c1ccc(Cl)cc1)c1ccc(Cl)cc1: FALSE
5. Oc1cccc2cccnc12: TRUE
6. C[C@@H]1C[C@@H]([C@H](O)CC2CC(=O)NC(=O)C2)C(=O)[C@@H](C)C1: TRUE
7. CCNc1nc(NC(C)(C)C)nc(SC)n1: FALSE
8. C[C@]12CCC(=O)C[C@@H]1CC[C@@H]1[C@@H]2CC[C@]2(C)[C@@H](O)CC[C@@H]12: FALSE

Just curious, what result did CCCCCCCCc1ccc(O)cc1 get here?
TRUE

Recorded call for NC(=O)O ?
FALSE

# outcome recorded in this test, key = COc1cc(-c2ccc(N)c(OC)c2)ccc1N
FALSE

Lab log entry: O=C1C2(Cl)C3(Cl)C4(Cl)C(Cl)(Cl)C5(Cl)C3(Cl)C1(Cl)C5(Cl)C24Cl (configuration not stated) — outcome as called in the assay?
TRUE

Which outcome did this test record for the compound CC(C)(c1ccccc1)c1ccc(O)c(C(C)(C)c2ccccc2)c1 ?
TRUE

I would be grateful if you could indicate the recorded call for BrCCBr .
FALSE

Status in this test for CC(C)CCCCCCOC(=O)c1ccccc1C(=O)OCCCCCCC(C)C ?
FALSE
